FYI, the data here is from patent US9957263B2.

Items are presented alongside their recorded pKi.
# STUDY SYSTEM: BRD4 (BDI_K57-E168) (Homo sapiens (Human), UniProt O60885)
# EXPERIMENTAL DETAILS: TR-FRET bromodomain binding assay, BRD4 first bromodomain
# CONDITION LABEL: His-tagged BD1, Alexa647-labeled probe 100 nM
pKi: −log10 of the molar value.

| MOLECULE | pKi |
| --- | --- |
| CCNC(=O)c1cc2c(-c3ccc(C(=O)N(CCCC(=O)OCC)c4ccccc4)cc3Oc3c(C)cccc3C)cn(C)c(=O)c2[nH]1 [Example 180] | 5.06 |
| CCNC(=O)c1cc2c(-c3ccc(C(=O)N(CCCN(C)C)C4CCCCC4)cc3Oc3c(C)cccc3C)cn(C)c(=O)c2[nH]1 [Example 172] | 6.00 |
| CCNC(=O)c1cc2c(-c3cc(S(=O)(=O)CC)ccc3Oc3c(C)cccc3CCc3ccccc3)cn(C)c(=O)c2[nH]1 [Example 148] | 5.24 |

====

# STUDY SYSTEM: BRD4 (BDI_K57-E168) (Homo sapiens (Human), UniProt O60885)
# EXPERIMENTAL DETAILS: TR-FRET bromodomain binding assay, BRD4 first bromodomain
# CONDITION LABEL: His-tagged BD1, Alexa647-labeled probe 100 nM
# Description: A time-resolved fluorescence resonance energy transfer (TR-FRET) assay was used to determine the affinities of compounds of the Examples listed in Table 1 for each bromodomain of BRD4. […] Compound dilution series were prepared in DMSO via a 3-fold serial dilution from 2.5 mM to 42 nM. […] After a one-hour incubation at room temperature, TR-FRET ratios were determined using an Envision multilabel plate reader (Ex 340, Em […]). […]
pKi: −log10 of the molar value.
Outcome label depends on pKi relative to 8: at/above gives Fulfilled, below gives Not fulfilled.

| COMPOUND | ASSIGNED CATEGORY |
| --- | --- |
| CSCC(=O)N1CCC(Nc2ccc(S(C)(=O)=O)cc2-c2cn(C)c(=O)c3[nH]ccc23)CC1 [Example 91] | Fulfilled |
| COCCNc1cccc(Oc2ccc(S(C)(=O)=O)cc2-c2cn(C)c(=O)c3[nH]ccc23)c1 [Example 64] | Fulfilled |
| CCNC(=O)c1cc2c(-c3cc(S(=O)(=O)CC)ccc3Oc3c(C)cccc3CN3CCCC3=O)cn(C)c(=O)c2[nH]1 [Example 151] | Not fulfilled |

====

# STUDY SYSTEM: BRD4 (BDII_E352-M457) (Homo sapiens (Human), UniProt O60885)
# EXPERIMENTAL DETAILS: TR-FRET bromodomain binding assay, BRD4 second bromodomain
# CONDITION LABEL: His-tagged BD2, Alexa647-labeled probe 30 nM
pKi: −log10 of the molar value.

| COMPOUND | STUDY SYSTEM | pKi |
| --- | --- | --- |
| CN(C)CC(=O)N1CCC(Nc2ccc(S(C)(=O)=O)cc2-c2cn(C)c(=O)c3[nH]ccc23)CC1 [Example 85] | BRD4 (BDII_E352-M457) (Homo sapiens (Human), UniProt O60885) | 7.22 |
| Cn1cc(-c2cc(S(C)(=O)=O)ccc2Oc2cccc(NCc3ccc(C#N)cc3)c2)c2cc[nH]c2c1=O [Example 61] | BRD4 (BDII_E352-M457) (Homo sapiens (Human), UniProt O60885) | 8.89 |
| CCNC(=O)c1cc2c(-c3cc(S(=O)(=O)CC)ccc3Oc3c(C)cccc3CN3CCCS3(=O)=O)cn(C)c(=O)c2[nH]1 [Example 152] | BRD4 (BDII_E352-M457) (Homo sapiens (Human), UniProt O60885) | 7.44 |
| COc1ccc(CNc2cccc(Oc3ccc(S(C)(=O)=O)cc3-c3cn(C)c(=O)c4[nH]ccc34)c2)cc1 [Example 79] | BRD4 (BDII_E352-M457) (Homo sapiens (Human), UniProt O60885) | 8.57 |
| Cn1cc(-c2cc(S(C)(=O)=O)ccc2Oc2cccc(NCC3CCCO3)c2)c2cc[nH]c2c1=O (centres unmarked) [Example 65] | BRD4 (BDII_E352-M457) (Homo sapiens (Human), UniProt O60885) | 8.68 |

====

Reported log10 Ki values follow for various compounds
# STUDY SYSTEM: BRD4 (BDII_E352-M457) (Homo sapiens (Human))
# EXPERIMENTAL DETAILS: TR-FRET bromodomain binding assay, BRD4 second bromodomain
# CONDITION LABEL: His-tagged BD2, Alexa647-labeled probe 30 nM
MEASUREMENT LABEL: log10 Ki (log10 of the value in µM)

| COMPOUND | log10 Ki |
| --- | --- |
| CCCCN(CCC#N)C(=O)c1ccc(-c2cn(C)c(=O)c3[nH]c(C(=O)NCC)cc23)c(Oc2c(C)cccc2C)c1 | -1.95 |
| CCNC(=O)c1cc2c(-c3ccc(C(=O)N(CCC#N)C4CCCCC4)cc3Oc3c(C)cccc3C)cn(C)c(=O)c2[nH]1 | -2.06 |
| Cn1cc(-c2cc(S(C)(=O)=O)ccc2Oc2cccc(C(=O)NC3CCCCC3)c2)c2cc[nH]c2c1=O | -2.21 |
| COCCN[C@H]1CC[C@H](Nc2ccc(S(C)(=O)=O)cc2-c2cn(C)c(=O)c3[nH]ccc23)CC1 | -1.92 |
| CCNC(=O)c1cc2c(-c3ccc(C(=O)N(CCN(CC)CC)c4ccccc4)cc3Oc3c(C)cccc3C)cn(C)c(=O)c2[nH]1 | -2.22 |
| CCS(=O)(=O)c1ccc(Oc2c(C)cccc2Cl)c(-c2cn(C)c(=O)c3[nH]c(C(=O)NC(C)C(=O)NC)cc23)c1 (centres unmarked) | -2.14 |
| CCS(=O)(=O)c1ccc(Oc2c(C)cccc2Cl)c(-c2cn(C)c(=O)c3[nH]c(C(=O)NCC(=O)N4CCCCC4)cc23)c1 | -2.12 |
| Cn1cc(-c2cc(S(C)(=O)=O)ccc2Oc2cccc(C(=O)N3CCC(C(F)(F)F)CC3)c2)c2cc[nH]c2c1=O | -1.96 |
| Cn1cc(-c2cc(S(C)(=O)=O)ccc2Oc2cccc(NCc3ccccc3C#N)c2)c2cc[nH]c2c1=O | -1.72 |
| COCC(=O)N1CCC(Nc2ccc(S(C)(=O)=O)cc2-c2cn(C)c(=O)c3[nH]ccc23)CC1 | -1.80 |
| CCS(=O)(=O)c1ccc(Oc2c(C)cccc2Cl)c(-c2cn(C)c(=O)c3[nH]c(C(=O)NCC#N)cc23)c1 | -0.80 |
| Cc1cccc(C)c1Oc1ccc(S(C)(=O)=O)cc1-c1cn(C)c(=O)c2[nH]c(-c3nc(C4CC4)no3)cc12 | -1.64 |
| CCS(=O)(=O)c1ccc(Oc2ccc(Cl)cc2C#CCN2CCOCC2)c(-c2cn(C)c(=O)c3[nH]ccc23)c1 | -2.07 |
| CCNC(=O)c1cc2c(-c3cc(S(=O)(=O)CC)ccc3Oc3c(C)cccc3CCC3CCCC3)cn(C)c(=O)c2[nH]1 | -1.82 |
| CCS(=O)(=O)Nc1cc(-c2cn(C)c(=O)c3[nH]ccc23)c(Oc2ccc(F)cc2F)cc1CO | -2.70 |
| Cn1cc(-c2cc(S(C)(=O)=O)ccc2Oc2ccc(F)cc2F)c2cc(CN3CCN(C4CC4)CC3)[nH]c2c1=O | -0.92 |
| Cn1cc(-c2cc(S(C)(=O)=O)ccc2Oc2cccc(C(=O)NC3CC3)c2)c2cc[nH]c2c1=O | -2.00 |

====

# Test system: breast cancer cell line MX-1
# EXPERIMENTAL DETAILS: MX-1 cell line proliferation assay, Method B
# Format: cell-based
# CONDITION LABEL: Homo sapiens, MX1; MX-1 cells, 384-well, 72 hours, Cell Titer Glo; read-out: Cellular proliferation: EC50 Method B
# Procedure: The impact of compounds of the Examples on cancer cell proliferation was determined using the breast cancer cell line MX-1 (ATCC) in a 3-day proliferation assay and the data are reported in Table 1. […] Luminescence readings from the Cell Titer Glo assay were normalized to the DMSO treated cells and analyzed using Accelrys Assay Explorer 3.3 software with sigmoidal curve fitting to obtain ECsos. […] The overall MSR was determined to be 3.3 and a moving MSR (last six run MSR overtime) has averaged
Recorded EC50 by entry

| COMPOUND | EC50, nM |
| --- | --- |
| CCCCN(CCC#N)C(=O)c1ccc(-c2cn(C)c(=O)c3[nH]c(C(=O)NCC)cc23)c(Oc2c(C)cccc2C)c1 [Example 184] | 2840 |
| CCNC(=O)c1cc2c(-c3ccc(C(=O)N(CC#N)c4cccc(C(F)(F)F)c4)cc3Oc3c(C)cccc3C)cn(C)c(=O)c2[nH]1 [Example 171] | 6410 |
| CCNC(=O)c1cc2c(-c3cc(S(=O)(=O)CC)ccc3Oc3c(C)cccc3CCC3CCCC3)cn(C)c(=O)c2[nH]1 [Example 164] | 10000 |
| CCNC(=O)c1cc2c(-c3ccc(C(=O)N(CC#N)c4ccccc4)cc3Oc3c(C)cccc3C)cn(C)c(=O)c2[nH]1 [Example 177] | 10000 |
| CCNC(=O)c1cc2c(-c3ccc(C(=O)N(c4ccccc4)C4CCCCC4)cc3Oc3c(C)cccc3C)cn(C)c(=O)c2[nH]1 [Example 186] | 7650 |
| CCNC(=O)c1cc2c(-c3ccc(C(=O)N(CC#N)c4ccc(OC)cc4)cc3Oc3c(C)cccc3C)cn(C)c(=O)c2[nH]1 [Example 183] | 1480 |
| CCNC(=O)c1cc2c(-c3ccc(C(=O)N(CC#N)c4cccc(Cl)c4)cc3Oc3c(C)cccc3C)cn(C)c(=O)c2[nH]1 [Example 168] | 3060 |
| Cc1cccc(C)c1Oc1ccc(S(C)(=O)=O)cc1-c1cn(C)c(=O)c2[nH]c(C(=O)NCCCN(C)C3CCCCC3)cc12 [Example 187] | 290 |
| CCNC(=O)c1cc2c(-c3ccc(C(=O)N(CC#N)c4ccc(Cl)cc4)cc3Oc3c(C)cccc3C)cn(C)c(=O)c2[nH]1 [Example 169] | 2170 |
| CCNC(=O)c1cc2c(-c3ccc(C(=O)N(CCC#N)c4cccc(Cl)c4)cc3Oc3c(C)cccc3C)cn(C)c(=O)c2[nH]1 [Example 175] | 2410 |
| CCNC(=O)c1cc2c(-c3ccc(C(=O)N(CCC#N)C4CCCCC4)cc3Oc3c(C)cccc3C)cn(C)c(=O)c2[nH]1 [Example 176] | 3910 |
| CCNC(=O)c1cc2c(-c3ccc(C(=O)N(CCN(C)C)c4ncccn4)cc3Oc3c(C)cccc3C)cn(C)c(=O)c2[nH]1 [Example 174] | 1610 |
| CCNC(=O)c1cc2c(-c3ccc(C(=O)N(CCN(C)C)c4ccccc4)cc3Oc3c(C)cccc3C)cn(C)c(=O)c2[nH]1 [Example 179] | 991 |
